PROCEDURE TEXT: Cytotoxicity against human HO8910 cells by MTT assay
Format: functional, cell-based
REPORTED CONDITIONS: HO-8910
ATTRIBUTE MEASURED: IC50 (µg/mL)
Kindly answer with a numeric value in µg/mL, unit omitted.

Record excerpt, results attached:
[
  {
    "MOLECULE": "C=C1C(=O)O[C@@H]2C3O[C@]3(C)CC/C=C(\\C)CC[C@@H]12 (some centres undefined)",
    "IC50 [µg/mL]": 1.37
  },
  {
    "MOLECULE": "C/C1=C\\CC[C@@]2(C)O[C@@H]2[C@H]2OC(=O)[C@@H](C)[C@@H]2CC1 [11BETA,13-DIHYDRO-PARTHENOLIDE]",
    "IC50 [µg/mL]": 158
  }
]

In the following, a different molecule is considered.
Prompt: Given the molecule CC[C@]1(O)C[C@H]2CN(CCc3c([nH]c4ccccc34)[C@@](C(=O)OC)(c3cc4c(cc3OC)N(C=O)[C@H]3[C@@](O)(C(=O)OC)[C@H](OC(C)=O)[C@]5(CC)C=CCN6CC[C@]43[C@@H]65)C2)C1 , what is its reported IC50?
Response: 1.37

###

System: SMMC-7721
PROCEDURE TEXT: Cytotoxicity against human SMMC7721 cells by MTT assay
Assay type: functional, cell-based
ATTRIBUTE MEASURED: IC50 (µg/mL)
Kindly answer with a numeric value in µg/mL, unit omitted.

[
  {
    "COMPOUND": "CC[C@]1(O)C[C@H]2CN(CCc3c([nH]c4ccccc34)[C@@](C(=O)OC)(c3cc4c(cc3OC)N(C=O)[C@H]3[C@@](O)(C(=O)OC)[C@H](OC(C)=O)[C@]5(CC)C=CCN6CC[C@]43[C@@H]65)C2)C1 [VINCRISTINE]",
    "RESULT UNITS": "µg/mL",
    "IC50": 20.7
  }
]

Prompt: Given the compound C=C1C(=O)O[C@@H]2C3O[C@]3(C)CC/C=C(\C)CC[C@@H]12 (some centres undefined) , what is its reported IC50?
Response: 4.2
